Could you please report measured TGI for the items listed next?
test system: SR leukemia; experiment: NCI tumour cell line growth inhibition, 48 h

# Compound, Target entity, TGI
measured = [
    ("O=c1[nH]c(F)nc2c1ncn2C1OC(CO)C(O)C1O (centres undefined)", "SR leukemia", "> 100 µM"),
    ("O=C(CCN1CCC(CCO)CC1)Nc1ccc2c(c1)C(=O)c1ccc(NC(=O)CCN3CCC(CCO)CC3)cc1C2=O", "SR leukemia", "55.7 µM"),
]

Batch request: TGI per item, same order as input.
1. CCc1cccc(CC)c1NC(=O)CC1SC(N)=NC1=O (centres undefined)
2. [N-]=[N+]=CC(=O)OCC1NC(=O)C(COC(=O)C=[N+]=[N-])NC1=O (centres undefined)

Result:
> 100 µM
> 100 µM

###

system: RPMI-8226 leukemia; test: NCI tumour cell line growth inhibition, 48 h
Could you please report measured TGI for the items listed next?

Below: 4 compounds and their reported TGI.
# Compound, TGI
data = [
    ("OCCCc1cnco1", "> 100 µM"),
    ("NC(=S)N/N=C(\\CCC(=O)Nc1ccccc1[N+](=O)[O-])CC(=O)c1ccco1", "> 100 µM"),
    ("C(=N\\NC1=NCCN1)/c1cccc2cc3ccncc3nc12", "4.44 µM"),
    ("Cn1c2cc([N+](=O)[O-])ccc2c(=O)c2c(O)cc3c(c21)C=CC(C)(C)O3", "> 100 µM"),
]

get_value(item= COc1cc(/C=C/C(=O)c2ccc(F)cc2)ccc1OCCCCCOc1cc2c(cc1OC)C(=O)N1CCCC1C=N2 (stereo not given) , readout=TGI) returns 0.0383 µM

###

system: RPMI-8226 leukemia; experiment: NCI tumour cell line growth inhibition, 48 h; in the data active = GI50 below about 0.43 µM; inactive = the rest
// one of active, inactive, no free text

# Compound, Label
rows = [
    ("O=Cc1ccc(-c2ccc(-c3ccc(C=O)o3)[se]2)o1", "inactive"),
]

Request: So what was the verdict on O=C(Nc1ccc(I)cc1)c1cccc([N+](=O)[O-])c1O in this test?
Result: inactive

Request: So what was the verdict on FC(F)(F)c1ccc(-c2ncc(-c3ccc(C(F)(F)F)cc3)c(NCc3cc(C(F)(F)F)cc(C(F)(F)F)c3)n2)cc1 in this test?
Result: inactive

Request: So what was the verdict on CN(CSc1ccc(Cl)cc1)c1ccc(CSc2ccc(Cl)cc2)cc1 in this test?
Result: inactive

Request: So what was the verdict on O=C1C(=C([O-])c2ccccc2)C(=O)c2ccccc21.O=C1C(=C([O-])c2ccccc2)C(=O)c2ccccc21.[Co+2] in this test?
Result: inactive

###

Could you please report measured TGI for the items listed next?
system: IGROV1 ovarian; test: NCI tumour cell line growth inhibition, 48 h

Below: 3 compounds and their reported TGI.
# Compound, TGI
records = [
    ("CCOC(=O)c1cn(CC)c2ccc3ccsc3c2c1=O", "> 100 µM"),
    ("Oc1c(Cl)c(Cl)c(O)c(CCNc2nccs2)c1Cl", "17.9 µM"),
    ("CCCCN(CCCC)CC(C(=O)Nc1ccc([N+](=O)[O-])cc1[N+](=O)[O-])/C(C)=N\\NC(=O)C[N+](C)(C)C (configuration not stated)", "> 100 µM"),
]

Batch request: TGI per item, same order as input.
1. NC1=NC2=C(CCCC2)C(c2cccs2)S1 (configuration not stated)
2. Nc1nc(N)c2ncn(-c3ccccc3)c2n1
3. NC(Cc1ccccc1)c1nn[nH]n1 (configuration not stated)
4. NC(CO)c1ccc(OCc2ccccc2)cc1 (configuration not stated)
5. CC[C@@H]1CC[C@@H]2[C@H](CC[C@]3(C)[C@@H](OC(C)=O)CC[C@@H]23)[C@H]1C(=O)OC
6. CC(C)(CN1CCCCC1)C(=O)CC(SCCN)c1ccc(Cl)cc1 (configuration not stated)

Result:
1. > 100 µM
2. > 100 µM
3. > 100 µM
4. > 100 µM
5. 89.8 µM
6. 8.48 µM

Batch request: TGI per item, same order as input.
1. O=C(c1ccccc1)C(Nc1ccc2ccccc2c1)c1ccccc1 (configuration not stated)
2. CCN(CC)C(=S)N/N=C/c1cc(OC)ccc1O

Result:
1: > 100 µM; 2: > 100 µM

###

system: HCC-2998 colon; test: NCI tumour cell line growth inhibition, 48 h
Test readout: TGI

# Compound, Target entity, TGI
records = [
    ("CCCn1c(=O)c2nn3c(=O)n(CCC)c(=O)c3nn2c1=O", "HCC-2998 colon", "> 100 µM"),
    ("C=CC(=O)NCNC(=O)C=C", "HCC-2998 colon", "> 100 µM"),
    ("CCCOc1ccc(/C=N/Nc2cc(C)nc3ccc(Cl)cc23)cc1", "HCC-2998 colon", "3.53 µM"),
    ("O=c1nc2c(c(-c3ccc(F)cc3)[nH]1)COC/C2=C\\c1ccc(F)cc1", "HCC-2998 colon", "> 100 µM"),
    ("O=C(Cc1ccccc1)N/N=C(/c1nc2ccc([N+](=O)[O-])cc2[nH]c1=O)C(O)c1ccccc1Cl (stereo not given)", "HCC-2998 colon", "> 100 µM"),
    ("CC(C)COP(C)(=O)C(N)(C(F)(F)F)C(F)(F)F (stereo not given)", "HCC-2998 colon", "> 100 µM"),
    ("CCOC(=O)[C@@H](C)C[C@H](Cc1ccccc1)NC(=O)c1csc([C@@H](C[C@H](C(C)C)N(C)C(=O)[C@@H](NC(=O)[C@H]2C[C@H](O)CCN2C)C(C)C)OC(C)=O)n1", "HCC-2998 colon", "> 16.7 µM"),
    ("N#Cc1c(-c2ccccc2)cc(-c2cccs2)c(C#N)c1N", "HCC-2998 colon", "> 100 µM"),
]

Batch request: TGI per item, same order as input.
1. O=c1[nH]c2ccccc2n2cc3ccccc3c12
2. CCOC(=O)c1cn(CC)c2ccc3ccsc3c2c1=O
3. Cc1cnc2c(c1)C(=O)N(c1ccc([N+](=O)[O-])cc1)S2(=O)=O
4. COc1cc2c(cc1OCCCCn1c(-c3cccs3)nc3ccccc31)N=C[C@@H]1CCCN1C2=O
5. COCC12CCC(OC)C34C5CC6(O)C(OC)C=C(C5C6OC(=O)c5ccccc5)C(C(OC)C13)C4N(C)C2 (stereo not given)
6. COc1cc(/C=C/C(=O)c2c(C)nc3ccccc3c2C)ccc1OCCCCOc1cc2c(cc1OC)C(=O)N1CCC[C@H]1C=N2

Result:
20.8 µM
> 100 µM
> 100 µM
4.5 µM
> 100 µM
1.16 µM

###

system: MDA-MB-231 breast; test: NCI tumour cell line growth inhibition, 48 h; in the data active = GI50 below about 0.43 µM; inactive = the rest
// one of class 1 (active), class 0 (inactive), no free text

# Molecule, Label
rows = [
    ("O=c1[nH]c2ccccc2n2cc3ccccc3c12", "class 0"),
    ("CCC(C)(C)[C@H](NC(=O)[C@H]1CCCCN1C)C(=O)N(C)[C@H](C[C@@H](OC(C)=O)c1nc(C(=O)N[C@@H](Cc2ccccc2)C[C@H](C)C(=O)O)cs1)C(C)C", "class 1"),
    ("CCN1C(=O)N(CC)C2C1NC(=S)N2/N=C/C=C/c1ccccc1OC (configuration not stated)", "class 1"),
    ("CCOc1cc(/C=C/C(=O)C(C(=O)/C=C/c2ccc(OC(=O)CNc3nnc(C)s3)c(OCC)c2)C(=O)CNc2nnc(C)s2)ccc1OC(=O)CNc1nnc(C)s1", "class 0"),
    ("c1ccc(-c2cn(-c3ccccc3)c(-c3ccccc3)n2)cc1", "class 0"),
    ("FC(F)(F)c1cc(-c2ncn(/C=C\\c3nnco3)n2)cc(C(F)(F)F)c1", "class 1"),
]

Next item in the queue.
Request: So what was the verdict on COc1cc(/C=C/C(=O)c2c(C)nc3ccccc3c2C)ccc1OCCCCOc1cc2c(cc1OC)C(=O)N1CCC[C@H]1C=N2 in this test?
Result: class 0

###

test system: OVCAR-3 ovarian; assay: NCI tumour cell line growth inhibition, 48 h; in the data active means GI50 below about 0.43 µM; inactive means the rest
// one of 1 for active, 0 for inactive, no free text

Example cases with answers are listed next.
# Compound, Label
measured = [
    ("CCC(C)CC(C)C(=O)c1c(O)ccn(O)c1=O (stereo not drawn)", 1),
    ("CCOC(=O)[C@@H](C)C[C@H](Cc1ccccc1)NC(=O)c1csc([C@@H](C[C@H](C(C)C)N(C)C(=O)[C@@H](NC(=O)[C@H]2C[C@H](O)CCN2C)C(C)C)OC(C)=O)n1", 1),
    ("CN(CSc1ccc(Cl)cc1)c1ccc(CSc2ccc(Cl)cc2)cc1", 0),
    ("COc1ccc(C2CC(c3ccc4ccccc4c3)=NN2c2nc(O)c(C3=c4cc(OC)ccc4=NC3=O)s2)cc1 (stereo not drawn)", 1),
    ("O=C1c2cccnc2C(=O)c2c1c(C(=O)OCCc1ccccn1)c1ccccn21", 1),
]

Request: So what was the verdict on O=C(O)c1ccc(C(=O)O)c(C(=O)O)c1.[NH-]C1CCCCC1[NH-].[Pt+2] in this test?
Result: 0

Request: So what was the verdict on O=C(O)c1cn(C2CC2)c2cc(N3CCN(C(=O)Nc4nc(-c5ccc(Br)cc5)cs4)CC3)c(F)cc2c1=O in this test?
Result: 0

Request: So what was the verdict on FC(F)(F)c1ccc(-c2ncc(-c3ccc(C(F)(F)F)cc3)c(NCc3cc(C(F)(F)F)cc(C(F)(F)F)c3)n2)cc1 in this test?
Result: 0
